System: T. brucei
Experiment: Growth inhibition assay of T. brucei cell cultures (Alamar Blue, 48 h)
Format: cell-based
Conditions: Trypanosoma brucei; read-out: B) T. brucei EC50
pEC50: −log10 of the molar value.

{"columns": ["compound", "pEC50"],
 "data": [
  ["COC(=O)N(CCN(C)c1nc2nc(Cl)ccc2[nH]1)Cc1cc(Cl)cc(Cl)c1 [Compound 1963]", 7.01],
  ["Clc1cc(Cl)cc(CNCCNc2nc3ccc(Cl)nc3[nH]2)c1 [Compound 1849]", 7.22],
  ["Fc1ccc2nc(NCCCN[C@H]3CCOc4c(Cl)cc(Cl)cc43)[nH]c2n1 [Compound 1711]", 5.55],
  ["Clc1cc(Cl)cc(CNC2CCCCN(c3nc4nc(Cl)ccc4[nH]3)C2)c1 (stereo not shown) [Compound 1903]", 5.74]
]}

----------
Recorded log10 IC50 values (MetRS (S. aureus) (Staphylococcus aureus, UniProt Q5HII6)) are given below.
assay endpoint: log10 IC50 (log10 of the value in nM)

{"columns": ["compound", "system name", "experimental result"],
 "data": [
  ["O=C(Cc1cc(Cl)cc(Cl)c1)N1CCCC(c2nc3nc(Cl)ccc3[nH]2)C1 (centres unmarked) [Compound 1762]", "MetRS (S. aureus) (Staphylococcus aureus, UniProt Q5HII6)", 3.46],
  ["COc1ccc(Oc2ccnc(NCc3nc4ccccc4[nH]3)c2)c(Cl)c1 [Compound 1933]", "MetRS (S. aureus) (Staphylococcus aureus, UniProt Q5HII6)", 1.60],
  ["CCN(CCNCc1cc(Cl)cc(Cl)c1)c1nc2nc(Cl)ccc2[nH]1 [Compound 1949]", "MetRS (S. aureus) (Staphylococcus aureus, UniProt Q5HII6)", 2.78],
  ["CC(=O)N(CCNc1nc2nc(F)ccc2[nH]1)Cc1cc(Cl)cc(Cl)c1 [Compound 1897]", "MetRS (S. aureus) (Staphylococcus aureus, UniProt Q5HII6)", 2.78],
  ["C[C@@H](CNCc1cc(Cl)cc(Cl)c1)CNc1nc2nc(F)ccc2[nH]1 [Compound 1673]", "MetRS (S. aureus) (Staphylococcus aureus, UniProt Q5HII6)", 2.05],
  ["Fc1ccc2nc(NCCCN[C@@H]3CCOc4c(Cl)cc(Cl)cc43)[nH]c2n1 [Compound 1709]", "MetRS (S. aureus) (Staphylococcus aureus, UniProt Q5HII6)", 1.28],
  ["COc1ccc(Oc2cc(NCc3nc4ccccc4[nH]3)ccn2)c(Cl)c1 [Compound 1950]", "MetRS (S. aureus) (Staphylococcus aureus, UniProt Q5HII6)", 2.90],
  ["O=c1[nH]c(Cc2ccc(Cl)cc2Cl)cn1Cc1nc2ccccc2[nH]1 [Compound 1907]", "MetRS (S. aureus) (Staphylococcus aureus, UniProt Q5HII6)", 1.73],
  ["N[C@@H](CC(=O)NCc1nc2ccccc2[nH]1)Cc1ccc(Cl)cc1Cl [Compound 1720]", "MetRS (S. aureus) (Staphylococcus aureus, UniProt Q5HII6)", 2.26],
  ["O=C(Cc1cc(Cl)cc(Cl)c1)N1CCCC(c2nc3cc(Cl)ccc3[nH]2)C1 (centres unmarked) [Compound 1734]", "MetRS (S. aureus) (Staphylococcus aureus, UniProt Q5HII6)", 3.39],
  ["CN(CCN(Cc1cc(Cl)cc(Cl)c1)C(=O)CN)c1nc2nc(Cl)ccc2[nH]1 [Compound 1957]", "MetRS (S. aureus) (Staphylococcus aureus, UniProt Q5HII6)", 2.63],
  ["Fc1ccc2nc(NCCCN[C@H]3CCOc4c(Cl)cc(Cl)cc43)[nH]c2n1 [Compound 1711]", "MetRS (S. aureus) (Staphylococcus aureus, UniProt Q5HII6)", 2.57],
  ["CN(CCNCc1cc(Cl)cc(Cl)c1)c1nc2ccc(Cl)nc2[nH]1 [Compound 1893]", "MetRS (S. aureus) (Staphylococcus aureus, UniProt Q5HII6)", 2.47],
  ["O=c1c(NCc2nc3ccccc3[nH]2)c(NCc2ccc(Cl)cc2Cl)c1=O [Compound 1769]", "MetRS (S. aureus) (Staphylococcus aureus, UniProt Q5HII6)", 1.98],
  ["COc1ccc(Oc2ccnc(NCc3nc4ccc(F)nc4[nH]3)c2)c(Cl)c1 [Compound 1960]", "MetRS (S. aureus) (Staphylococcus aureus, UniProt Q5HII6)", 1.08],
  ["Clc1cc(Cl)c2c(c1)C(N[C@H]1CCCN(c3nc4nc(Cl)ccc4[nH]3)C1)CCN2 (some centres unmarked) [Compound 1899]", "MetRS (S. aureus) (Staphylococcus aureus, UniProt Q5HII6)", 2.51]
]}

----------
Test system: T. brucei
Assay: Growth inhibition assay of T. brucei cell cultures (Alamar Blue, 48 h)
Assay type: cell-based
Settings: Trypanosoma brucei; read-out: B) T. brucei EC50
pEC50: −log10 of the molar value.

{"columns": ["compound", "result qualifier", "pEC50"],
 "data": [
  ["O=C(CCOc1ccc(Cl)cc1Cl)NC1(c2nc3ccccc3[nH]2)CC1 [Compound 1738]", "<", 4.70],
  ["Clc1cc(Cl)c2ccn(CCCNc3nc4ccc(Cl)nc4[nH]3)c2c1 [Compound 1996]", "=", 5.28],
  ["OC(CNCc1cc(Cl)cc(Cl)c1)CNc1nc2cccnc2[nH]1 (stereo not drawn) [Compound 1634]", "=", 6.92],
  ["CC(=O)N(Cc1cc(Cl)cc(Cl)c1)C1CCCC(c2nc3nc(Cl)ccc3[nH]2)C1 (stereo not drawn) [Compound 1789]", "=", 5.55],
  ["O=C(COc1ccc(Cl)cc1Cl)NCCc1nc2ccccc2[nH]1 [Compound 1675]", "<", 4.70],
  ["O=C(Cc1cc(Cl)cc(Cl)c1)NCc1nc2ccc(Cl)nc2[nH]1 [Compound 1875]", "=", 5.72],
  ["CC(=O)N(CCCc1nc2nc(F)ccc2[nH]1)Cc1cc(Cl)cc(Cl)c1 [Compound 1835]", "=", 6.06],
  ["CC(Cc1nc2ccc(C(F)(F)F)cc2[nH]1)NCc1cc(Cl)cc(Cl)c1 (stereo not drawn) [Compound 1825]", "=", 5.44],
  ["CC(Cc1nc2cc(Cl)c(Cl)cc2[nH]1)NCc1cc(Cl)cc(Cl)c1 (stereo not drawn) [Compound 1822]", "=", 5.45],
  ["Fc1ccc2[nH]c(N3CCC[C@H](NCc4cc(Cl)cc(Cl)c4)C3)nc2n1 [Compound 1900]", "=", 6.89],
  ["Clc1cc(Cl)cc(CNCCCc2nc3ccc(Cl)cc3[nH]2)c1 [Compound 1832]", "=", 5.67],
  ["Clc1ccc(CN[C@@H]2CCN(c3nc4ccc(Cl)nc4[nH]3)C2)c(Cl)c1 [Compound 1848]", "=", 4.98],
  ["CC(=O)N(Cc1ccc(Cl)cc1Cl)C1CCCC(c2nc3nc(Cl)ccc3[nH]2)C1 (stereo not drawn) [Compound 1810]", "=", 5.34],
  ["NC(Cc1nc2ccccc2[nH]1)C(=O)NCCc1ccc(Cl)cc1Cl (stereo not drawn) [Compound 1795]", "=", 4.91],
  ["O=C1CN(Cc2ccc(Cl)cc2Cl)CCN1Cc1nc2ccccc2[nH]1 [Compound 1747]", "<", 5.00],
  ["Clc1cc(Cl)cc(CN[C@H]2CCCN(C3=NCc4ccccc4N3)C2)c1 [Compound 1961]", "=", 5.42],
  ["O=C(Cc1cc(Cl)cc(Cl)c1)NCc1nc2ncc(Cl)cc2[nH]1 [Compound 1877]", "=", 5.06],
  ["CN(CCN[C@@H]1CCNc2c(Cl)cc(Cl)cc21)c1nc2nc(F)ccc2[nH]1 [Compound 1919]", "=", 8.20]
]}

----------
Tested on: T. brucei
Experiment: Growth inhibition assay of T. brucei cell cultures (Alamar Blue, 48 h)
Assay type: cell-based
Conditions: Trypanosoma brucei; read-out: B) T. brucei EC50
Some compounds, each annotated with its measured EC50.

{"columns": ["compound", "system name", "result qualifier", "EC50, nM"],
 "data": [
  ["Clc1cc(Cl)cc(CO[C@H]2CCCN(c3nc4nc(Cl)c(Br)cc4[nH]3)C2)c1", "T. brucei", ">", 20000],
  ["Cc1ccc2[nH]c(NCCCNCc3cc(Cl)cc(Cl)c3)nc2n1", "T. brucei", "=", 662],
  ["CCNc1c(Cl)cc(Cl)cc1CN[C@H]1CCCN(c2nc3nc(Cl)ccc3[nH]2)C1", "T. brucei", "=", 359],
  ["CC(=O)N(Cc1cc(Cl)cc(Cl)c1)C1CCCN(c2nc3nc(F)ccc3[nH]2)C1 (stereo not shown)", "T. brucei", ">", 20000]
]}

----------
System: T. brucei
Experiment: Growth inhibition assay of T. brucei cell cultures (Alamar Blue, 48 h)
Format: cell-based
Conditions: Trypanosoma brucei; read-out: B) T. brucei EC50
pEC50: −log10 of the molar value.
Some compounds, each annotated with its measured pEC50.
assay endpoint: pEC50

{"columns": ["smiles record", "system name", "experimental result"],
 "data": [
  ["O=C(/C=C/Oc1ccc(Cl)cc1Cl)NNc1nc2ccccc2[nH]1", "T. brucei", "< 4.70"],
  ["O=C(NCc1nc2cccnc2[nH]1)OCc1ccccc1", "T. brucei", "< 5.00"],
  ["Clc1cc(Cl)c(Cl)c(CN[C@H]2CCCN(c3nc4nc(Cl)c(Br)cc4[nH]3)C2)c1", "T. brucei", "< 4.70"],
  ["O=C1CN(Cc2cc(Cl)cc(Cl)c2)CCN1Cc1nc2ccccc2[nH]1", "T. brucei", "< 5.00"]
]}
